# Tested on: 5'-Cy5-Tte preQ1 riboswitch (RNA, riboswitch) CUGGGUCGCAGUAACCCCAGUUAACAAAACAAG
# EXPERIMENTAL_DETAILS: MST
# APPLIED_CONDITIONS: 100 mM KCl, 25 mM MgCl2; 50 mM Tris-HCl pH 7.5, 2% DMSO; up to 1 mM

MOLECULE: C[S+](CC[C@H](N)C(=O)O)C[C@H]1O[C@@H](n2cnc3c(N)ncnc32)[C@H](O)[C@@H]1O (stereo partly shown)
SYSTEM: 5'-Cy5-Tte preQ1 riboswitch (RNA, riboswitch) CUGGGUCGCAGUAACCCCAGUUAACAAAACAAG
binding: no

MOLECULE: Nc1ncnc2c1ncn2[C@@H]1O[C@H](CSCC[C@H](N)C(=O)O)[C@@H](O)[C@H]1O
SYSTEM: 5'-Cy5-Tte preQ1 riboswitch (RNA, riboswitch) CUGGGUCGCAGUAACCCCAGUUAACAAAACAAG
binding: no

MOLECULE: Nc1ncnc2c1ncn2[C@@H]1O[C@H](CNCC[C@H](N)C(=O)O)[C@@H](O)[C@H]1O
SYSTEM: 5'-Cy5-Tte preQ1 riboswitch (RNA, riboswitch) CUGGGUCGCAGUAACCCCAGUUAACAAAACAAG
binding: no

MOLECULE: NCCCNC[C@H]1O[C@@H](n2cnc3c(N)ncnc32)[C@H](O)[C@@H]1O
SYSTEM: 5'-Cy5-Tte preQ1 riboswitch (RNA, riboswitch) CUGGGUCGCAGUAACCCCAGUUAACAAAACAAG
binding: no

###

# System: Ba SAM-VI riboswitch (label-free, IVT) (RNA, riboswitch) GGCAUUGUGCCUCGCAUUGCACUCCGCGGGGCGAUAAGUCCUGAAAAGGGAUGUC
# EXPERIMENTAL_DETAILS: ITC
# APPLIED_CONDITIONS: 50 mM KCl, 10 mM MgCl2; 40 mM HEPES pH 7.0, 25 °C, 0.2% DMSO
MEASUREMENT_LABEL: KD (mM)

Please review the entries below; each comes with its answer.
MOLECULE: Nc1ncnc2c1ncn2[C@@H]1O[C@H](CNCC[C@H](N)C(=O)O)[C@@H](O)[C@H]1O
MEASUREMENT: 0.00331
//
MOLECULE: C[S+](CC[C@H](N)C(=O)O)C[C@H]1O[C@@H](n2cnc3c(N)ncnc32)[C@H](O)[C@@H]1O (stereo partly shown)
MEASUREMENT: 0.000671

a = Nc1ncnc2c1ncn2[C@@H]1O[C@H](CSCC[C@H](N)C(=O)O)[C@@H](O)[C@H]1O
b = NCCCNC[C@H]1O[C@@H](n2cnc3c(N)ncnc32)[C@H](O)[C@@H]1O
Could you tell me which of these two has the smaller KD figure? First: a Second: b Give the chosen item's label as your response.
b
(b: 0.00173 mM, a: 0.014 mM)

###

# System: 5'-Biotin-Ba SAM-VI riboswitch (RNA, riboswitch) GGCAUUGUGCCUCGCAUUGCACUCCGCGGGGCGAUAAGUCCUGAAAAGGGAUGUC
# EXPERIMENTAL_DETAILS: SPR, 1:1 kinetic fit
# APPLIED_CONDITIONS: 150 mM NaCl, 6 mM MgCl2; 50 mM HEPES pH 7.0, 25 °C
MEASUREMENT_LABEL: KD (µM)

Please review the entries below; each comes with its answer.
COMPOUND: C[S+](CC[C@H](N)C(=O)O)C[C@H]1O[C@@H](n2cnc3c(N)ncnc32)[C@H](O)[C@@H]1O (stereo partly shown)
MEASURE_UNIT: µM
KD: 3.72
--
COMPOUND: Nc1ncnc2c1ncn2[C@@H]1O[C@H](CNCC[C@H](N)C(=O)O)[C@@H](O)[C@H]1O
MEASURE_UNIT: µM
KD: 12.3

1 = NCCCNC[C@H]1O[C@@H](n2cnc3c(N)ncnc32)[C@H](O)[C@@H]1O
2 = Nc1ncnc2c1ncn2[C@@H]1O[C@H](CSCC[C@H](N)C(=O)O)[C@@H](O)[C@H]1O
Task for the reader: decide whether 1 or 2 has the larger KD. Give the chosen item's label as your response.
2
(2: 150 µM, 1: 4.17 µM)

Every entry's value here was drawn from paper PMC12035807.
